Entries and their Plant response rating, Galium
tested on: galium (catchweed bedstraw, Galium aparine); assay: Test A1 postemergence, galium; format: in vivo; conditions: Postemergence, 31 g ai/ha; 0 to 100 scale (0 no effect, 100 complete control); 10 days
EXPERIMENTAL_ENDPOINT: Plant response rating, Galium

COMPOUND | STUDY_TARGET | NUMERIC_VALUE
CCOC(=O)N(c1cc(C(=O)N2CCCCC2)c(C)c(C)c1C)S(=O)(=O)C(F)(F)F | galium (catchweed bedstraw, Galium aparine) | 50
CCOC(=O)N(c1cc(C(=O)N2CCC(C)CC2)c(C)cc1C)S(=O)(=O)C(F)(F)F | galium (catchweed bedstraw, Galium aparine) | 40
COCC1CC(c2cc(N(COC(=O)C(C)(C)C)S(=O)(=O)C(F)(F)F)c(C)cc2C)=NO1 (stereo not shown) | galium (catchweed bedstraw, Galium aparine) | 50
CCC1ON=C(c2cc(N(C(=O)OCC(C)C)S(=O)(=O)C(F)(F)F)c(C)cc2C)C1CC (stereo not shown) | galium (catchweed bedstraw, Galium aparine) | 80
Cc1c(C(=O)N2CCC(F)(F)CC2)cc(N(COC(=O)C(C)(C)C)S(=O)(=O)C(F)(F)F)c(C)c1C | galium (catchweed bedstraw, Galium aparine) | 50
Cc1cc(C)c(N(COC(=O)C(C)(C)C)S(=O)(=O)C(F)(F)F)cc1C(=O)N1CCC(F)(F)CC1 | galium (catchweed bedstraw, Galium aparine) | 70
Cc1c(NS(=O)(=O)C(F)(F)F)cc(C(=O)N2CCC(F)(F)CC2)c(C)c1C | galium (catchweed bedstraw, Galium aparine) | 90

====

tested on: wheat (Triticum aestivum); experiment: Test A1 postemergence, wheat; assay type: in vivo; conditions: Postemergence, 31 g ai/ha; 0 to 100 scale (0 no effect, 100 complete control); 10 days
Excerpt: […]

MOLECULE | Plant response rating, Wheat
Cc1c(NS(=O)(=O)C(F)(F)F)cc(C(=O)N2CCOCC2)c(C)c1C | 20
CCOC(=O)N(c1cc(C(=O)N2CCCCC2)c(C)c(C)c1C)S(=O)(=O)C(F)(F)F | 0
Cc1cc(F)c(C2=NOC3CCCC23)cc1NS(=O)(=O)C(F)(F)F (centres unmarked) | 0
CCOC(=O)N(c1cc(C(=O)N2CCOCC2)c(C)cc1C)S(=O)(=O)C(F)(F)F | 40
CCc1cc(C)c(NS(=O)(=O)C(F)(F)F)cc1C1=NOC2CCCC12 (centres unmarked) | 50
Cc1c(C2=NO[C@@H]3CCC[C@H]23)cc(N(COC(=O)C(C)(C)C)S(=O)(=O)C(F)(F)F)c(C)c1C | 0
Cc1cc(C)c(C2=NOC(OCC(C)C)C2)cc1NS(=O)(=O)C(F)(F)F (centres unmarked) | 0
CCOC1CC(c2cc(NS(=O)(=O)C(F)(F)F)c(C)cc2C)=NO1 (centres unmarked) | 50

====

Listing of entries alongside the reported Plant response rating, Corn.
test system: corn (Zea mays); experiment: Test A1 preemergence, corn; assay type: in vivo; conditions: 31 g ai/ha, 0 to 100 scale (0 no effect, 100 complete control)

MOLECULE | Plant response rating, Corn
CCOC(=O)N(c1cc(C(=O)N2C[C@@H](C)O[C@H](C)C2)c(C)c(C)c1C)S(=O)(=O)C(F)(F)F (relative stereo) | 20
Cc1c(C(=O)N2CCC(C)CC2)cc(N(COC(=O)C(C)(C)C)S(=O)(=O)C(F)(F)F)c(C)c1C | 0
CCc1cc(C)c(NS(=O)(=O)C(F)(F)F)cc1C1=NOC2CCCC12 (centres unmarked) | 10
Cc1c(NS(=O)(=O)C(F)(F)F)cc(C(=O)N2CCC(F)CC2)c(C)c1C | 0
Cc1cc(C)c(N(COC(=O)C(C)(C)C)S(=O)(=O)C(F)(F)F)cc1C(=O)N1CCC(C)CC1 | 10
CCOC1CC(c2cc(NS(=O)(=O)C(F)(F)F)c(C)cc2C)=NO1 (centres unmarked) | 0
Cc1cc(C)c(N(COC(=O)C(C)(C)C)S(=O)(=O)C(F)(F)F)cc1C1=NOC2OCCC12 (centres unmarked) | 10
COC1CCCN(C(=O)c2cc(NS(=O)(=O)C(F)(F)F)c(Cl)c(F)c2C)C1 (centres unmarked) | 0
Cc1cc(C)c(N(C(=O)OC(C)C)S(=O)(=O)C(F)(F)F)cc1C1=NOC2CCCC12 (centres unmarked) | 0
Cc1c(NS(=O)(=O)C(F)(F)F)cc(C2=NOC3(CCCC3)C2)c(C)c1C | 0
Cc1cc(C)c(C2=NOC3OCCC23)cc1NS(=O)(=O)C(F)(F)F (centres unmarked) | 20
Cc1c(C2=NO[C@@H]3CCC[C@H]23)cc(N(COC(=O)C(C)(C)C)S(=O)(=O)C(F)(F)F)c(C)c1C | 0
COC1CCN(C(=O)c2cc(NS(=O)(=O)C(F)(F)F)c(C)c(C)c2C)CC1 | 10
CCC1ON=C(c2cc(N(C(=O)OCC(C)C)S(=O)(=O)C(F)(F)F)c(C)cc2C)C1CC (centres unmarked) | 0
Cc1cc(C(F)(F)F)c(C2=NOC3CCCC23)cc1NS(=O)(=O)C(F)(F)F (centres unmarked) | 0
Cc1cc(C)c(N(COC(=O)OC(C)(C)C)S(=O)(=O)C(F)(F)F)cc1C1=NOC2CCCC12 (centres unmarked) | 0
CCCCOC1CC(c2cc(NS(=O)(=O)C(F)(F)F)c(C)cc2C)=NO1 (centres unmarked) | 0
Cc1cc(C)c(N(COC(=O)C(C)(C)C)S(=O)(=O)C(F)(F)F)cc1C(=O)N1CCC(F)(F)CC1 | 0
Cc1c(NS(=O)(=O)C(F)(F)F)cc(C(=O)N(C)C)c(C)c1C | 0
Cc1c(NS(=O)(=O)C(F)(F)F)cc(C(=O)N(C)C)c(C)c1Cl | 0
Cc1cc(C)c(C2=NOC3(C)CCCC23)cc1NS(=O)(=O)C(F)(F)F (centres unmarked) | 0
Cc1cc(C)c(N(S(=O)(=O)C(F)(F)F)S(=O)(=O)C(F)(F)F)cc1C1=NOC2COCC12 (centres unmarked) | 0
Cc1c(C2=NOC3(CCCC3)C2)cc(N(COC(=O)C(C)(C)C)S(=O)(=O)C(F)(F)F)c(C)c1C | 0
Cc1c(C(=O)N(C)C)cc(NS(=O)(=O)C(F)(F)F)c(Cl)c1F | 0
C#CCN(C)C(=O)c1cc(N(COC(=O)C(C)(C)C)S(=O)(=O)C(F)(F)F)c(C)c(C)c1C | 0
Cc1cc(Cl)c(NS(=O)(=O)C(F)(F)F)cc1N1CC2(CCCCC2)OC1=O | 0
COC1CCN(C(=O)c2cc(N(COC(=O)C(C)(C)C)S(=O)(=O)C(F)(F)F)c(C)c(C)c2C)CC1 | 0
COc1cccc2c1C(=O)N(c1cc(N(COC(=O)C(C)(C)C)S(=O)(=O)Cl)c(C)cc1C)C2 | 0
Cc1cc(C)c(N2Cc3cccc(Br)c3C2=O)cc1NS(=O)(=O)Cl | 0

====

Test system: blackgrass (Alopecurus myosuroides)
Test: Test A postemergence, blackgrass
Type: in vivo
Conditions: Postemergence, 500 g ai/ha; visual injury approx. 10 days; 0 to 100 scale (0 no effect, 100 complete control)
Excerpt: Seeds of plant species selected from barnyardgrass (Echinochloa crus-galli), kochia (Bassia scoparia), ragweed (common ragweed, Ambrosia artemisiifolia), Ryegrass, Italian (Italian ryegrass, Lolium multiflorum), Foxtail, Giant (giant foxtail, Setaria faberi), and pigweed (Amaranthus retroflexus) were planted into a blend of loam soil and sand and treated preemergence with a directed soil spray using test chemicals formulated in a non-phytotoxic solvent mixture which included a surfactant. […]

SMILES | STUDY_TARGET | Plant response rating, Blackgrass
Cc1cc(Cl)c(C(=O)N(C)C)cc1N(S(=O)(=O)C(F)(F)F)S(=O)(=O)C(F)(F)F | blackgrass (Alopecurus myosuroides) | 0
Cc1cc(C)c(N(S(=O)(=O)C(F)(F)F)S(=O)(=O)C(F)(F)F)cc1N1CC2(CCCCC2)OC1=O | blackgrass (Alopecurus myosuroides) | 20
Cc1cc(Cl)c(C(=O)N2CCCCC2)cc1NS(=O)(=O)C(F)(F)F | blackgrass (Alopecurus myosuroides) | 0
Cc1cc(C)c(N(S(=O)(=O)C(F)(F)F)S(=O)(=O)C(F)(F)F)cc1C(=O)N1CCCOCC1 | blackgrass (Alopecurus myosuroides) | 0
COC(=O)N(c1cc(N2CCC3(CCCCC3)C2=O)c(C)cc1C)S(=O)(=O)C(F)(F)F | blackgrass (Alopecurus myosuroides) | 0
Cc1cc(Cl)c(C(=O)N2CCOCC2)cc1N(S(=O)(=O)C(F)(F)F)S(=O)(=O)C(F)(F)F | blackgrass (Alopecurus myosuroides) | 50
Cc1cc(C)c(N(S(=O)(=O)C(F)(F)F)S(=O)(=O)C(F)(F)F)cc1C(=O)N1CCC(Cl)CC1 | blackgrass (Alopecurus myosuroides) | 10
